Entry source: BindingDB's records for doi:10.1016/j.bmc.2016.04.060

- system-name: Phosphatidylinositol 3-kinase regulatory subunit alpha/4,5-bisphosphate 3-kinase catalytic subunit alpha isoform (Homo sapiens, UniProt P27986+P42336)
- Sequence (P27986 whole entry, canonical isoform): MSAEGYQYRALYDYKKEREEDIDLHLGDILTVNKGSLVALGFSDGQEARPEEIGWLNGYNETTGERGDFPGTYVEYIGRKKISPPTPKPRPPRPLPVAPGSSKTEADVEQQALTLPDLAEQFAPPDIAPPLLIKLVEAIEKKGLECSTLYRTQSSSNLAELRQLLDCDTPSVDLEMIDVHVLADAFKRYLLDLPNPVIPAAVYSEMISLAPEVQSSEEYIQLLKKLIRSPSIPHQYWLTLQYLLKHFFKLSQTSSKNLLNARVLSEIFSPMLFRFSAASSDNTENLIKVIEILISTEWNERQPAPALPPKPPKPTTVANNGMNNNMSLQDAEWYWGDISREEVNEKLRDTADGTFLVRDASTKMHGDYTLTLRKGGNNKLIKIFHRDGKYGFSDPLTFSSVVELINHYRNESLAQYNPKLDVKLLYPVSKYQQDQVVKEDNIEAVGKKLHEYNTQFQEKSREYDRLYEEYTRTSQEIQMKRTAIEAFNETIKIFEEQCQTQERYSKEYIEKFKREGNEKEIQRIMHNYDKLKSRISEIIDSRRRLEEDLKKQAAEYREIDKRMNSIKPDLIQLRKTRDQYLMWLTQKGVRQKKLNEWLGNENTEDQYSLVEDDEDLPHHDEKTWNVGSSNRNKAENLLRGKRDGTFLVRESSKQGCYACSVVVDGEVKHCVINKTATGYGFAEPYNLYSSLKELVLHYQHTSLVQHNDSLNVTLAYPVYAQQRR
- Sequence (P42336 whole entry, canonical isoform): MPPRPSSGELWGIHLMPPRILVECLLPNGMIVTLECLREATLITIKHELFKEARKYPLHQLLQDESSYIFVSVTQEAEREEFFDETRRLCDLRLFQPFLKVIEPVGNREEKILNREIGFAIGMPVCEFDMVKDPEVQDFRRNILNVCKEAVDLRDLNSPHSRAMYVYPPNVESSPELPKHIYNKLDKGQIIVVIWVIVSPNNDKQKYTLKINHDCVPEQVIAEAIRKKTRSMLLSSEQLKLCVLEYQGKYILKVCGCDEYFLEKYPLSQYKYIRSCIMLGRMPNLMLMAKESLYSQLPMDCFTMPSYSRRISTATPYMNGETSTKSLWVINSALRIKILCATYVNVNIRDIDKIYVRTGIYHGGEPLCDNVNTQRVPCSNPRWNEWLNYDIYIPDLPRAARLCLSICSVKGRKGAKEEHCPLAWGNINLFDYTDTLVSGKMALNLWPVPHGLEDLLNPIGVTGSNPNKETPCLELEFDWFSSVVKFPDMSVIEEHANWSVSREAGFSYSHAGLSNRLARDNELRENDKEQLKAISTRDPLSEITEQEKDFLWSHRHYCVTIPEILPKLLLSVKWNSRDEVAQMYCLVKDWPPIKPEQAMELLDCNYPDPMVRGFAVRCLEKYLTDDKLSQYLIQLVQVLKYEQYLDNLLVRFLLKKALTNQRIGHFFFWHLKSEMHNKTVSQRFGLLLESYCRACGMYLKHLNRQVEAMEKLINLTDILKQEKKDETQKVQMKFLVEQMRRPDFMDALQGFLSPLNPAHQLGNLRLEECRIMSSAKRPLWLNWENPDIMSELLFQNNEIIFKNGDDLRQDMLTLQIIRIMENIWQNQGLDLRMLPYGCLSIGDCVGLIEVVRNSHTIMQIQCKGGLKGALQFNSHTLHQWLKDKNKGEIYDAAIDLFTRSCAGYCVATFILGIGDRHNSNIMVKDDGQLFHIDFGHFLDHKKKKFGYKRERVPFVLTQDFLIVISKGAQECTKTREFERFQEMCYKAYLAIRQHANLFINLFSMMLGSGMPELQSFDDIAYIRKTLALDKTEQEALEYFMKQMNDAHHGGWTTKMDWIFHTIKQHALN
- assay-remarks: Inhibition of human PI3K p110alpha/p85alpha expressed in baculovirus preincubated for 20 mins followed by addition of phosphorylate phosphatidylinositol-4,5-bisphosphate as substrate and ATP measured after 15 mins by AlphaScreen competition assay
Listed here are molecules together with their documented pIC50.
Convention used: pIC50 is expressed as -log10 of the molar concentration.

{"molecule-smiles": "CCN1CCN(c2cc(F)c(NC(=O)N3CCc4c(-c5cnc(N)nc5)nc(N5CCOCC5)nc43)c(F)c2)CC1", "pIC50": 7.66}

Next item in the queue.
Could you please provide reported pIC50 for CCN1CCN(c2ccc(NC(=O)N3CCc4c(-c5cnc(N)nc5)nc(N5CCOCC5)nc43)c(C)c2)CC1 ? Thanks!
8.00
